Could you please report measured % ID per gram brain for the items listed next?
# Tested on: EMT-6 mammary tumors
# measurement-notes: Biodistribution in EMT-6 BALB/C mice
# Assay type: in vivo
# assay-setup: brain, 5 min

### Prompt Request the reported % ID per gram brain associated with COc1cc2c(cc1OC)CN(CCCCNC(=O)c1cc([125I])cc(OC)c1OC)CC2 [[^125I]6i]
### Response 1.53 ± 0.14 % ID per gram

### Prompt Request the reported % ID per gram brain associated with COc1cc2c(cc1OC)CN(CCNC(=O)c1cc([125I])ccc1OC)CC2 [[^125I]8i]
### Response 1.42 ± 0.33 % ID per gram

### Prompt Request the reported % ID per gram brain associated with COc1cc2c(cc1OC)CN(CCCCNC(=O)c1cc(Br)cc(OC)c1O[11CH3])CC2 [[^11C]6]
### Response 0.33 ± 0.09 % ID per gram

### Prompt Request the reported % ID per gram brain associated with COc1cc2c(cc1OC)CN(CCNC(=O)c1cc(C)ccc1O[11CH3])CC2 [[^11C]9]
### Response 1.63 ± 0.30 % ID per gram

### Prompt Request the reported % ID per gram brain associated with COc1cc2c(cc1OC)CN(CCCCNC(=O)c1cc(C)cc(OC)c1O[11CH3])CC2 [[^11C]10]
### Response 2.29 ± 0.28 % ID per gram

### Prompt Request the reported % ID per gram brain associated with COc1cc2c(cc1OC)CN(CCCCNC(=O)c1cc([76Br])cc(OC)c1OC)CC2 [[^76Br]6]
### Response 1.60 ± 0.15 % ID per gram

---

Could you please report measured ratio Tumor:muscle for the items listed next?
# Tested on: EMT-6 mammary tumors
# measurement-notes: Biodistribution in EMT-6 BALB/C mice
# Type: in vivo
# assay-setup: 30 min
# From the text: As used herein, the term “tumor:background ratio” (i.e., tumor:fat ratio, tumor:muscle ratio, tumor:lung ratio, tumor:blood ratio) refers to the % injected dose/g tissue of the radiotracer in the tumor divided by the % injected dose/g […] in the background tissue (i.e., fat, muscle, lung, blood). B. Biodistribution Studies of ^11C analogs in Tumor-Bearing Mice. […]
Please state the value as a number alone, without comment.

### Prompt Request the reported ratio Tumor:muscle associated with COc1cc2c(cc1OC)CN(CCNC(=O)c1cc([125I])ccc1OC)CC2 [[^125I]8i]
### Response 2.06

### Prompt Request the reported ratio Tumor:muscle associated with COc1cc2c(cc1OC)CN(CCCCNC(=O)c1cc(C)cc(OC)c1O[11CH3])CC2 [[^11C]10]
### Response 3.18

### Prompt Request the reported ratio Tumor:muscle associated with COc1cc2c(cc1OC)CN(CCCCNC(=O)c1cc([76Br])cc(OC)c1OC)CC2 [[^76Br]6]
### Response 3.70

### Prompt Request the reported ratio Tumor:muscle associated with COc1cc2c(cc1OC)CN(CCCCNC(=O)c1cc(Br)cc(OC)c1O[11CH3])CC2 [[^11C]6]
### Response 0.59

### Prompt Request the reported ratio Tumor:muscle associated with COc1cc2c(cc1OC)CN(CCCCNC(=O)c1cc([125I])cc(OC)c1OC)CC2 [[^125I]6i]
### Response 3.94

---

Could you please report measured ratio Tumor:blood for the items listed next?
# Tested on: EMT-6 mammary tumors
# measurement-notes: Biodistribution in EMT-6 BALB/C mice
# Type: in vivo
# assay-setup: 5 min
# Source text: As used herein, the term “tumor:background ratio” (i.e., tumor:fat ratio, tumor:muscle ratio, tumor:lung ratio, tumor:blood ratio) refers to the % injected dose/g tissue of the radiotracer in the tumor divided by the % injected dose/g […] in the background tissue (i.e., fat, muscle, lung, blood). B. Biodistribution Studies of ^11C analogs in Tumor-Bearing Mice. […]

### Prompt Request the reported ratio Tumor:blood associated with COc1cc2c(cc1OC)CN(CCCCNC(=O)c1cc(C)cc(OC)c1O[11CH3])CC2 [[^11C]10]
### Response 1.37 ± 0.33

### Prompt Request the reported ratio Tumor:blood associated with COc1cc2c(cc1OC)CN(CCCCNC(=O)c1cc(Br)cc(OC)c1O[11CH3])CC2 [[^11C]6]
### Response 0.40 ± 0.01

### Prompt Request the reported ratio Tumor:blood associated with COc1cc2c(cc1OC)CN(CCCCNC(=O)c1cc([125I])cc(OC)c1OC)CC2 [[^125I]6i]
### Response 1.73 ± 0.46

### Prompt Request the reported ratio Tumor:blood associated with COc1cc2c(cc1OC)CN(CCNC(=O)c1cc([125I])ccc1OC)CC2 [[^125I]8i]
### Response 0.42 ± 0.03

### Prompt Request the reported ratio Tumor:blood associated with COc1cc2c(cc1OC)CN(CCCCNC(=O)c1cc([76Br])cc(OC)c1OC)CC2 [[^76Br]6]
### Response 2.25 ± 0.28
